Data provenance is ChEMBL document CHEMBL1125363.

target: Serotonin 2 (5-HT2) receptor (Mus musculus, UniProt Q02152+P34968+P35363); experiment: In vitro binding affinity for serotonin 5-hydroxytryptamine (5-HT) 2 receptors; format: protein assay
Class assignment keyed on Ki, ranges lowest (below 60 nM), middle (60 nM to below 300 nM), highest (300 nM or more)

> print(dat)
                                    compound                           subject.of.test  assigned.class
 1  CC1CC1CN1CCC(COc2ccc(F)cc2)CC1.O=C(O)/C=C\C(=O)O (stereo not drawn)  Serotonin 2 (5-HT2) receptor (Mus musculus, UniProt Q02152+P34968+P35363)          lowest
 2  Cl.Fc1ccc(COCC2CCN(Cc3ccc4ccccc4c3)CC2)cc1  Serotonin 2 (5-HT2) receptor (Mus musculus, UniProt Q02152+P34968+P35363)          middle
 3  Cl.O=[N+]([O-])c1ccc(OCC2CCN(Cc3ccccc3)CC2)cc1  Serotonin 2 (5-HT2) receptor (Mus musculus, UniProt Q02152+P34968+P35363)          middle
 4  C[S+]([O-])c1ccc(C(=O)CC2CCN(Cc3ccccc3)CC2)cc1.O (stereo not drawn)  Serotonin 2 (5-HT2) receptor (Mus musculus, UniProt Q02152+P34968+P35363)          middle
 5         CSc1ccc(OCC2CCN(CC3CC3)CC2)cc1.Cl  Serotonin 2 (5-HT2) receptor (Mus musculus, UniProt Q02152+P34968+P35363)          middle
 6  OC(Cc1ccc(F)cc1)C1CCN(CCCCc2ccccc2)CC1 (stereo not drawn)  Serotonin 2 (5-HT2) receptor (Mus musculus, UniProt Q02152+P34968+P35363)          middle
 7   O=C(CC1CCN(Cc2ccc(F)cc2)CC1)c1ccc(F)cc1  Serotonin 2 (5-HT2) receptor (Mus musculus, UniProt Q02152+P34968+P35363)          lowest
 8  O=C(O)/C=C\C(=O)O.c1ccc(CN2CCC(COC3CC3)CC2)cc1  Serotonin 2 (5-HT2) receptor (Mus musculus, UniProt Q02152+P34968+P35363)         highest
 9              c1ccc(OCC2CCN(CC3CC3)CC2)cc1  Serotonin 2 (5-HT2) receptor (Mus musculus, UniProt Q02152+P34968+P35363)          lowest
10  Br.O=C(CC1CCN(CC2CC2)CC1)c1ccc(-c2ccccc2)cc1  Serotonin 2 (5-HT2) receptor (Mus musculus, UniProt Q02152+P34968+P35363)         highest
11     Br.O=C(CC1CCN(CC2CC2)CC1)c1ccc(Cl)cc1  Serotonin 2 (5-HT2) receptor (Mus musculus, UniProt Q02152+P34968+P35363)         highest
12    CS(=O)(=O)c1ccc(OCC2CCN(CC3CC3)CC2)cc1  Serotonin 2 (5-HT2) receptor (Mus musculus, UniProt Q02152+P34968+P35363)         highest
13      c1cc2cc(OCC3CCN(CC4CC4)CC3)ccc2[nH]1  Serotonin 2 (5-HT2) receptor (Mus musculus, UniProt Q02152+P34968+P35363)          middle
14  CC1(CN2CCC(COc3ccc(F)cc3)CC2)CC1(Cl)Cl.O=C(O)/C=C/C(=O)O (stereo not drawn)  Serotonin 2 (5-HT2) receptor (Mus musculus, UniProt Q02152+P34968+P35363)          lowest
15     COc1ccc(C(=O)CC2CCN(Cc3ccccc3)CC2)cc1  Serotonin 2 (5-HT2) receptor (Mus musculus, UniProt Q02152+P34968+P35363)         highest
16  CS(=O)(=O)c1ccc(C(=O)CC2CCN(Cc3ccccc3)CC2)cc1  Serotonin 2 (5-HT2) receptor (Mus musculus, UniProt Q02152+P34968+P35363)          middle
17  O=C(CCCN1CCC(C(=O)Cc2ccc(F)cc2)CC1)c1ccc(F)cc1  Serotonin 2 (5-HT2) receptor (Mus musculus, UniProt Q02152+P34968+P35363)          lowest
18  CC(C)(C)c1ccc(COCCC2CCN(Cc3ccccc3)CC2)cc1.Cl  Serotonin 2 (5-HT2) receptor (Mus musculus, UniProt Q02152+P34968+P35363)         highest
19  O.O=C(CC1CCN(Cc2ccccc2)CC1)c1ccc(C(F)(F)F)cc1  Serotonin 2 (5-HT2) receptor (Mus musculus, UniProt Q02152+P34968+P35363)         highest
20  O.O=C(Cc1ccc(F)cc1)C1CCN(Cc2ccccc2)CC1.O=C(O)/C=C\C(=O)O  Serotonin 2 (5-HT2) receptor (Mus musculus, UniProt Q02152+P34968+P35363)          middle
21  O=C(CC1CCN(CCc2ccc(F)cc2)CC1)c1ccc(F)cc1  Serotonin 2 (5-HT2) receptor (Mus musculus, UniProt Q02152+P34968+P35363)          lowest
22  COc1ccc(C(O)CC2CCN(Cc3ccccc3)CC2)cc1.Cl (stereo not drawn)  Serotonin 2 (5-HT2) receptor (Mus musculus, UniProt Q02152+P34968+P35363)          middle
